Origin of the recorded values: the supplement of paper PMC10567573

# protein stability index per record follows
- Method Description: protein stability index of a GFP-peptide fusion (GPS, HEK-293T) (PSI 1-6); higher = more stable;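 note: 24-mer peptide tiles fused after GFP, lentivirally expressed, FACS-sorted into six equal bins by GFP/DsRed ratio, decoded by Illumina sequencing, PSI is the read-weighted mean bin number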
- Test Context: treatment: MLN4924 1 uM, 8 h; c terminus: a fixed tail appended
Output: the number by itself.

Examples from the recorded data:
- Sequence Code: "YLDPSVLSGVSCFVMFLCLADYLV [ARL6IP1]"
  protein stability index: 2.97
- Sequence Code: "VFLIIYYLDPSVLSGVSCFVMFLC [ARL6IP1]"
  protein stability index: 2.91
- Sequence Code: "WNDLRPKLSCLFAGPHSTLTPPCS [SNX8]"
  protein stability index: 2.27
- Sequence Code: "FSLRVHTGCHKKLGPEARRPRTRW"
  protein stability index: 3.06

Bench note: what protein stability index did HRKRGSQPPDMASALTDRTSRAPS [RSPH3] show? 4.95

* * *

- Method Description: protein stability index of a GFP-peptide fusion (GPS, HEK-293T) (PSI 1-6); higher = more stable
- Test Context: treatment: MLN4924 1 uM, 8 h; c terminus: a fixed tail appended
Quantity Kind: protein stability index
Field format: numeric only.

Consider the reported protein stability index for these sequences:
- Sequence Code: "FFFLRMDENYNLLPHGVNFQDAIF [CCDC3]"
  protein stability index: 2.97
- Sequence Code: "PRGRLDLATQSLTVETCRALGKLL [LRRC45]"
  protein stability index: 2.31
- Sequence Code: "SGSRVRVGFRLCNSTGGDCFYRGY [SCNN1D]"
  protein stability index: 2.38
- Sequence Code: "LLELQSQQACTHTKETEQLRSQLQ [CCDC89]"
  protein stability index: 4.29

protein stability index lookup needed for VCKGLPQHEEICLGLFTLILTEPA [INTS3] , thanks. 2.5

Data request, read-out protein stability index, for VPFVRVKREREVDEDSEPEREVRA [USP39] 5.17

* * *

- Method Description: protein stability index of a GFP-peptide fusion (GPS, HEK-293T) (PSI 1-6); higher = more stable
- Test Context: treatment: MLN4924 1 uM, 8 h; c terminus: a fixed tail appended
Give true when the value for protein stability index is at least 4. Give false when it is less.

- Sequence Code: "DEELGGSSRVPVGGGPEATLSISD [ZBTB22]"
  Class: "true"
- Sequence Code: "PDYGVPSSAASLIDFLRVVRNQQS [PTPN9]"
  Class: "false"
- Sequence Code: "ISDFGRQQLLPPFPSLHQSLPQNQ [EHMT1]"
  Class: "false"

Hi, just wondering whether RYHLQQNVHFKEETVKLFICELVM [STK32A] shows protein stability index of 4 or higher. false

Item EGASSDNGCEVKNRKSILSRHLNS [PHTF1] with protein stability index of 4 or above? true

* * *

Reported protein stability index by item:
- Method Description: protein stability index of a GFP-peptide fusion (GPS, HEK-293T) (PSI 1-6); higher = more stable
- Test Context: treatment: DMSO; c terminus: a fixed tail appended
Give the figure by itself; no unit, no explanation.

Look at this sequence and give its reported protein stability index. IKRLVGSDQETLRIHERLVAGSLA [SLC25A25] 2.74

Sample LLSRFSVGIFHLMQIAVPCAFLLL [TMEM175] — what was its protein stability index? 2.6

* * *

- Method Description: protein stability index of a GFP-peptide fusion (GPS, HEK-293T) (PSI 1-6); higher = more stable
- Test Context: treatment: DMSO; c terminus: a fixed tail appended
Quantity Kind: protein stability index
Give a plain numeric answer without units written out.

Please review the following examples before continuing.
- Sequence Code: "FLDLLSVFSDTATPDIKSHYAFRI [CIB1]"
  Measured: 2.86
- Sequence Code: "PKPLTRKPILLQRMEGSQEVVNMA [WDFY2]"
  Measured: 3.66
- Sequence Code: "LRRVLDELTLSKTDLEMQIESLNE [KRT13]"
  Measured: 3.12
- Sequence Code: "LQNEVRQLTEKLARVNENLARKIA [SSNA1]"
  Measured: 2.27

Name the recorded protein stability index for AEGTTGLAPAGQTSEESRPRLSQL [TNXB] . 5.66

Which protein stability index value belongs to LKDDIYIRYQSFNNQSDLEKEMQK [PRIM1] ? 4.41

Fill in the blank: the reported protein stability index of NIEEIDEIPLVIKYKKAVGLKLKQ [WDR88] is ____. 2.78

Which protein stability index value is on record for QKRYHCKECGKVFSQSAGLIQHQR [ZSCAN9] ? 3.3

# input sequence: AKYPHDVVNHLSCDEARNHYGGVV [SPACA9] ; wanted: its protein stability index 3.5

Give the measured protein stability index of VISPVIQLQPTFTPMRVALAGTFH [NSDHL] . 2.42

What does the data say about its protein stability index? Entry: LLQRRKRENMSDGDTSATESGDEV [KMT2E] 5.52

Request the reported protein stability index associated with FGIKCAKCQVGFSSSDLVMRARDS [ISL2] 2.37

Looking for the measured protein stability index of KGGISETRIEKRIVITGDADIDHD [EPB41L3] , can you help? 5.31

Quick check: protein stability index of VRSTETVERDNMEEDNVEESEEEG [HDAC6] ? 5.57

Query: protein stability index; subject: LREERKKAKKNKDKYVGVSSDSVG [CLINT1] 4.95
